biological target: ScMyo3; test: SPOT peptide array binding signal intensity (averaged, normalized) (arbitrary units (background-subtracted, floor 0; scale differs between SH3 domains)); higher = stronger binding of the SH3 domain to the peptide
Range-based classes on measured SPOT peptide array binding signal intensity: bottom end (below 5), midrange (5 to below 70), top end (70 or more)

Look over these answered cases.
binder: TKPTPPPKPSHLKPK
label: bottom end
//
binder: AVPPPPPPPPLPESL
label: top end
//
binder: EAEEAAPQLPSRSSA
label: bottom end
//
binder: STPQTMRQAPKRPDA
label: top end
//
binder: WTQRRGPLVVYAEDN
label: midrange
//
binder: PKMLPIPSKPTLFDL
label: bottom end
//
binder: QPWTDQFEKLEKEVS
label: bottom end
//
binder: LKQRFFLMFPKSIIW
label: bottom end
//
binder: DHPKGPPPPPPPDEK
label: top end
//
binder: YRRKSIPFAPHQITA
label: bottom end

Qu. Sort into band: `KKIRLIFTYPSTVGR`
Ans. bottom end

Qu. Next binder up: `APPPPPRRATPEKKP`
Ans. top end

Qu. Record: `QTMRQAPKRPDADVA`
Ans. top end

Qu. Also check `LPMNIQPDLPPRKIM`
Ans. midrange

Qu. Continue with `NFLRLLIGLPSQNEL`
Ans. bottom end

Qu. Please answer likewise for `FIRKRAPTPPAPSRS`
Ans. midrange
